All figures here come from ChEMBL document CHEMBL1155279.

test: Cytotoxicity against african green monkey Vero cells after 72 hrs; type: cell-based; settings: chlorocebus sabaeus
parameter-measured: MNTC at 72 h (µg/mL)
# number only, unit µg/mL dropped from output

Worked examples, 5 compounds total:
CCc1c(CN2CCSCC2)cc(-c2ccccc2F)n1-c1ccccc1F; 8
Cc1c(CN2CCN(C)CC2)cc(-c2ccc(Cl)cc2)n1-c1ccc(Cl)cc1; 4
CCc1c(CN2CCSCC2)cc(-c2ccc(F)cc2)n1-c1ccccc1F; 8
CCc1c(CN2CCSCC2)cc(-c2ccc(F)cc2)n1-c1ccccc1; 8
CCc1c(CN2CCSCC2)cc(-c2ccccc2)n1-c1ccc(F)cc1; 16

Can you share its MNTC at 72 h? I mean this compound: CCc1c(CN2CCSCC2)cc(-c2ccc(F)cc2)n1-c1ccc(F)cc1
8

Can you share its MNTC at 72 h? I mean this compound: CCc1c(CN2CCSCC2)cc(-c2ccccc2)n1-c1ccccc1
16

Can you share its MNTC at 72 h? I mean this compound: CCc1c(CN2CCN(C)CC2)cc(-c2ccc(Cl)cc2)n1-c1ccc(Cl)cc1
8
